Cited source for all entries: paper PMC6541974

Task for the reader: assign each of the following compounds its reported IC50.
Target: ROCK-II (Homo sapiens, UniProt O75116)
Construct: purchased Promega, USA
Sequence (O75116 whole entry): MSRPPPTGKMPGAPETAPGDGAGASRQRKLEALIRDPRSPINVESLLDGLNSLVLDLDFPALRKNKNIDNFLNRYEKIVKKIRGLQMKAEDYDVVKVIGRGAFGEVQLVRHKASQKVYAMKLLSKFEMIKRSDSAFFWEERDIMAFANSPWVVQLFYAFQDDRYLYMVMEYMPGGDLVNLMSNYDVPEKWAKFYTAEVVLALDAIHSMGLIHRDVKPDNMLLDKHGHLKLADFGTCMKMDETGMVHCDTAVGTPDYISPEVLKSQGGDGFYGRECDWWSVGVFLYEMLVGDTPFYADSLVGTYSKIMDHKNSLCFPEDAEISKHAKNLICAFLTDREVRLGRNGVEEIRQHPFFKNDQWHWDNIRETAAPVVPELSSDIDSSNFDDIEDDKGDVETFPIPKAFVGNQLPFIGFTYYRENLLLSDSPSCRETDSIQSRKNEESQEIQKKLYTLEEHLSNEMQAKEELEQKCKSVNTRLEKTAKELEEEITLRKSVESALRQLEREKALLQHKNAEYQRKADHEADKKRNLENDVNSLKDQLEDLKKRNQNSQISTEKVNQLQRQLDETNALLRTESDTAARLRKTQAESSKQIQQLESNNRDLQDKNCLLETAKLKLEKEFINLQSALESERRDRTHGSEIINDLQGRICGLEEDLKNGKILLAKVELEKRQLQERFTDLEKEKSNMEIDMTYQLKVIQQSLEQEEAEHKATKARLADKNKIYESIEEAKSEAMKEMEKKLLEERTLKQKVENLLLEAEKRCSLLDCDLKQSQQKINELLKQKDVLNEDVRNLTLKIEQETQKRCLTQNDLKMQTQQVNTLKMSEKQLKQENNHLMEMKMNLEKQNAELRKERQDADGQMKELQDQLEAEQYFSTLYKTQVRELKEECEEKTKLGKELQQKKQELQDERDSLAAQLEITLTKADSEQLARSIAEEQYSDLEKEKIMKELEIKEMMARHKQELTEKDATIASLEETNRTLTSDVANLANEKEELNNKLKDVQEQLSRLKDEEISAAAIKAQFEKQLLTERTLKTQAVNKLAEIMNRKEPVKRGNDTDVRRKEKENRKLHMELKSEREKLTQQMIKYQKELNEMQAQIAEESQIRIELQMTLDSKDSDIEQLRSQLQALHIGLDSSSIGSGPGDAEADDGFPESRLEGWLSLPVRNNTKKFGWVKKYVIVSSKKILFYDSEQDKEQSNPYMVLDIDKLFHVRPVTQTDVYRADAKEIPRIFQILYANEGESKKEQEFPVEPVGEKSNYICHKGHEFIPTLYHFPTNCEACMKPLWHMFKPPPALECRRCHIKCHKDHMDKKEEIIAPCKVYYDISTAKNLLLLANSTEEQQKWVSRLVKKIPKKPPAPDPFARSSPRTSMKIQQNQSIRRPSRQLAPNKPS
Experiment: ROCK-II inhibition assay (ADP-Glo Kinase Assay, ROCK2 Kinase assay)
Format: biochemical
Description: A vehicle control for 5% DMSO was used in the assay to check the interference. Standard curve for ROCK-II enzyme was done (Figure 2). Serial dilution and IC50 of the AE was performed in triplicate. […] Enzyme inhibition by tested samples is expressed as mean ± SD and analyzed using Prism program version 6 (GraphPad Software, Inc., San Diego CA); comparisons among tested samples were carried out using one-way analysis of variance (ANOVA) followed by Bonferroni's multiple comparisons test. […]
# value in nM; strip the unit string

Task: Form field: reported IC50 of C=C1C(O)C2(O)OCC34C(CC5C(C)=CC(OC6OC(CO)C(O)C(O)C6O)C(O)C5(C)C23)OC(=O)C(O)C14O [Compound T8, eurycomanol-2-O-β-D-glycopyranoside]
Result: 2520

Task: Form field: reported IC50 of CC1=CC(=O)[C@@H](O)[C@@]2(C)[C@H]1CC(=O)[C@@]1(C)[C@H]3C(=O)O[C@H]([C@@H]3C)[C@H](O)[C@@H]12
Result: 2280
